Hello, the source for this data is PubChem BioAssay, in case you need it.

Assay Comment: Her2 expression decrease, cell viability multiplex – SKBR3 breast tumor cells, AlphaScreen, ATP viability, primary screen (AID 461);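 note: percent of carrier control wells set as 100% viability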
Experimental Conditions: SKBR3 Her2 protein level, 18-24 h, measured here: SKBR3 viability, ATP luminescence, at 10 µM
Experimental Readout: viability (%)
Answers are plain numbers, in %.

// solved cases for viability follow
| Compound | viability / % |
| --- | --- |
| CC1(C)Oc2ccc3ccc(=O)oc3c2C(N2CCCCC2)C1O (stereo unspecified) | 103 |
| CC1(C)CC(=O)c2cnc(NC(=O)Cc3ccc(Cl)cc3)nc2C1 | 71.5 |
| COc1ccc(NC(=O)C2CCCCN2S(=O)(=O)c2ccc(F)cc2)cc1 (stereo unspecified) | 91 |

Please give viability, item by item, for the list that follows.
1. CCOC(=O)c1ccc(N=c2sc(C(=O)OC)cc(=O)n2Cc2ccco2)cc1
2. Cc1[nH]nc2c1C(=O)CC(C)(C)C2
3. COc1ccccc1NC(=O)N(C1CCCC1)C1CCN(C(C)=O)CC1
4. CCN1C(=O)c2ccccc2S(=O)c2ccc(C(=O)NC3CC3)cc21 (stereo unspecified)
5. Cc1nc2c(-c3ccccc3)c(C)nn2c(C)c1CCC(=O)NCc1ccco1
6. Cc1cn2c(-c3ccc(Cl)cc3)nnc2s1

Given back:
110
95.5
77.5
100
101
96

Each compound below has a reported value. Please supply its viability.
1. COc1ccc(C(=O)NCC(=O)NC2=NCCS2)cc1
2. NC(=O)C1CCN(C(=O)c2cc3n(n2)C(C(F)(F)F)CC(c2ccco2)N3)CC1 (stereo unspecified)
3. CSc1nc2ccccc2c(=O)n1N
4. CCN(CCNC(=O)C1CCN(S(=O)(=O)c2cccc3cccnc23)CC1)c1ccccc1
5. O=C(Nc1nncs1)c1ccccc1NS(=O)(=O)c1cccs1

Given back:
1: 100; 2: 84; 3: 109; 4: 87; 5: 99

Quick request: viability for each listed item, please.
1. COc1ccccc1N1CCN(C(=O)N2CCOCC2)CC1
2. COCCn1c(SCC(=O)N2CCc3ccccc32)nc2c(c1=O)SC(C)C2 (stereo unspecified)
3. COc1ccc(S(=O)(=O)N2CCC(C(=O)Nc3c(F)cccc3F)CC2)cc1
4. CCN1CCN(c2nc(C)nc3c2sc(=S)n3C)CC1
5. CC(C(=O)N1CC2(C)CC1CC(C)(C)C2)N1C(=O)c2ccccc2C1=O (stereo unspecified)
6. O=c1c2ccccc2nc(SCc2nc(-c3ccccc3)no2)n1-c1ccc(F)cc1

Given back:
[107, 77, 88.5, 100, 84, 90.5]

Go through the list and state viability for each entry.
1. O=C(NCCN1CCCCCC1)c1ccc(CS(=O)(=O)c2ccc(Br)cc2)o1
2. CN1CCN(C(=O)C2CCN(S(=O)(=O)c3ccc4c(c3)oc(=O)n4C)CC2)CC1
3. COc1ccccc1N(CC(=O)Nc1cccnc1)S(C)(=O)=O
4. Cc1cc(OCC(=O)NCCO)cc(C)c1Cl
5. CCOC(=O)c1nc2sc3c(c2c(=O)[nH]1)CCCC3
6. COCCn1cc(C(=O)c2ccccc2OCC(=O)Nc2cc(C)on2)cc(C#N)c1=O
7. CCn1c(=O)cc(OCC(=O)Nc2nc(C)cs2)c2ccccc21
8. CCCc1cc(C(=O)Nc2ccccc2SC)no1

Given back:
1. 86.5
2. 89
3. 94.5
4. 99
5. 80.5
6. 82.5
7. 83.5
8. 86

Hey, can you go through the list below and give me viability for every item?
1. O=C(Nc1ccc(N2C(=O)C3C4C=CC(C4)C3C2=O)cc1)Nc1nncs1 (stereo unspecified)
2. Cc1ccc(NC(=O)c2cc(-c3ccc(C)o3)nc3ccccc23)nc1

Given back:
[92, 80]

I'm hoping you can list viability for every compound here, please.
1. Cc1noc(/C=C/N(C)C)c1S(=O)(=O)N1CCCC(C(=O)NC2CCCCC2)C1 (stereo unspecified)
2. CCOC(=O)c1c(C)n(OCc2ccccc2)c2ccc3c(no[n+]3[O-])c12
3. CSc1ccccc1NC(=O)C1CCCO1 (stereo unspecified)
4. O=C(C1CCC(CNc2c(N3CCCCC3)c(=O)c2=O)CC1)N1CCc2ccccc2C1 (stereo unspecified)
5. CC(C)c1nccn1S(=O)(=O)c1cc(Cl)ccc1Cl

Given back:
99
60
97.5
95
104

Look up viability for the entries below, preserving their order.
1. O=C(c1cccs1)N1CCc2ccccc21
2. COc1cccc(C2=NOC(C(=O)N3CCN(c4ccccc4)CC3)C2)c1OC (stereo unspecified)
3. CCCCCn1c(=O)[nH]c2cc(C(=O)NCCN3CCOCC3)ccc2c1=O

Given back:
1. 110
2. 104
3. 99.5

Give viability for all compounds that follow.
1. CN1CCN(Cc2nc3c(c(=O)[nH]c(=O)n3C)n2CCc2ccccc2)CC1
2. Nc1cccc2c1C(=O)N(c1ccccc1)C2=O
3. Cn1c(/C=N/n2cnnc2)nc2ccccc21
4. Cc1nn(C(=O)c2ccoc2C)c(N)c1-c1ccccc1
5. CCCc1nnc(NC(=O)NCCN2C(=O)C3C4C=CC(C4)C3C2=O)s1 (stereo unspecified)
6. CCCCCn1c(CN2CCN(C(=O)c3ccco3)CC2)nc2c1c(=O)n(C)c(=O)n2C
7. COc1ccc(OC)c(S(=O)(=O)N2CCN(c3c(C)cccc3C)CC2)c1

Given back:
1: 82; 2: 95; 3: 100; 4: 101; 5: 110; 6: 96.5; 7: 100

Asked: Given `CCCS(=O)(=O)N1CCN(C(=O)c2cccnc2)CC1` , state its recorded viability.
Given back: 97
